target: Melanocyte-stimulating hormone receptor (Homo sapiens, UniProt Q01726); test: Tested for its binding affinity towards human recombinant Melanocortin 1 receptor by using radioligand binding assay
Sequence (Q01726 whole entry): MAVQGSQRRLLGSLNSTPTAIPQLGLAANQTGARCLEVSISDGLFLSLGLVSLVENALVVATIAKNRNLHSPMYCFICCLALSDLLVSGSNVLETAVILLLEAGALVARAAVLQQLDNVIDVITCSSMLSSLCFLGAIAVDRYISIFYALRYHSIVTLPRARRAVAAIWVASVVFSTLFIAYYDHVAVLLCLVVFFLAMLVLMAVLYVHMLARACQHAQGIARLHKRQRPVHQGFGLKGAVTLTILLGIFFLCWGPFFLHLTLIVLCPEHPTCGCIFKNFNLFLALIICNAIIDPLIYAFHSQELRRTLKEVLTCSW
ENDPOINT_LABEL: Ki (µM)

Would you please look over these solved cases?
QUERY_SMILES: NC(N)=NCCC[C@H](N)C(=O)N(Cc1cccc2ccccc12)Cc1c[nH]c2ccccc12
Ki [µM]: 11

QUERY_SMILES: c1ccc2c(CCNCc3c[nH]c4ccccc34)c[nH]c2c1
Ki [µM]: 32

A = NCCNC(=O)[C@H](CNCc1ccc2ccccc2c1)NCc1ccc2ccccc2c1
B = NCCCNC(=O)[C@H](CNCc1c[nH]c2ccccc12)NCc1ccc2ccccc2c1
C = NCCCCNC(=O)[C@H](CCCCNCc1c[nH]c2ccccc12)NCc1ccc2ccccc2c1
# rank by Ki, ascending (min first) Your task in answering is to list the labels in the requested order.
B, C, A
(B: 0.7 µM, C: 9.8 µM, A: 27 µM)

###

target: Melanocortin receptor 5 (Homo sapiens, UniProt P33032); experiment: Tested for its binding affinity towards human recombinant Melanocortin 5 receptor by using radioligand binding assay
Sequence (P33032 whole entry): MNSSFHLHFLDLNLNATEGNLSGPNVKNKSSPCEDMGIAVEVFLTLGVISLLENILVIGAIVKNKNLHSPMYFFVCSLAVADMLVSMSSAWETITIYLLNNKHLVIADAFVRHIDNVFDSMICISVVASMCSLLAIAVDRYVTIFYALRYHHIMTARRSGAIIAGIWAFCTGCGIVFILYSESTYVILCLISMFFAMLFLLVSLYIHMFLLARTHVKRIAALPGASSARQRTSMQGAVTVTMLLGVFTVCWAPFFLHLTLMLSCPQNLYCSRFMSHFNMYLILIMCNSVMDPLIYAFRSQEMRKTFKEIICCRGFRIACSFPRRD
ENDPOINT_LABEL: Ki (µM)

Would you please look over these solved cases?
MOLECULE: NC(N)=NCCC[C@H](N)C(=O)N(Cc1ccc2ccccc2c1)Cc1cccc2ccccc12 (stereo in doubt; 11b)
SUBJECT_OF_TEST: Melanocortin receptor 5 (Homo sapiens, UniProt P33032)
UOM: µM
Ki: 2.5

MOLECULE: NC(N)=NCCC[C@H](N)C(=O)N(Cc1cccc2ccccc12)Cc1c[nH]c2ccccc12
SUBJECT_OF_TEST: Melanocortin receptor 5 (Homo sapiens, UniProt P33032)
UOM: µM
Ki: 12

MOLECULE: NC(N)=NCCC[C@H](N)C(=O)N(Cc1ccc2ccccc2c1)Cc1cccc2ccccc12 (stereo in doubt; 11c)
SUBJECT_OF_TEST: Melanocortin receptor 5 (Homo sapiens, UniProt P33032)
UOM: µM
Ki: 2.7

MOLECULE: NCCCNCc1ccc2ccccc2c1
SUBJECT_OF_TEST: Melanocortin receptor 5 (Homo sapiens, UniProt P33032)
UOM: µM
Ki: 43

A = c1ccc2c(CNCc3c[nH]c4ccccc34)cccc2c1
B = c1ccc2cc(CNCc3cccc4ccccc34)ccc2c1
Between A and B , whose recorded Ki is greater? Returns: label corresponding to the selected item.
B

a = N[C@H](CCC(=O)O)C(=O)N(Cc1ccc2ccccc2c1)Cc1cccc2ccccc12
b = NCCNCc1ccc2ccccc2c1
Identify the item whose Ki is the smaller number: a or b Returns: label corresponding to the selected item.
a

###

biological target: Melanocortin receptor 3 (Homo sapiens, UniProt P41968); experiment: Tested for its binding affinity towards human recombinant Melanocortin 3 receptor by using radioligand binding assay
Sequence (P41968 whole entry): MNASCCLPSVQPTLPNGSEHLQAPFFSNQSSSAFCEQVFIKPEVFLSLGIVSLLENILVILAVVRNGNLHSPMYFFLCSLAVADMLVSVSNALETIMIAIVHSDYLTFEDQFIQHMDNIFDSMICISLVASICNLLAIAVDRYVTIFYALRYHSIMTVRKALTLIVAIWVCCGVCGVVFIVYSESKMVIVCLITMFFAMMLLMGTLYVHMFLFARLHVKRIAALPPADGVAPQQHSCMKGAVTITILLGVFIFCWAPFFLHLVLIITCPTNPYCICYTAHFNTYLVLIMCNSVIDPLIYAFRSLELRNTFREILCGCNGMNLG
pKi: −log10 of the molar value.
ENDPOINT_LABEL: pKi

a = NC(N)=NCCCC(N)C(=O)N(CCc1c[nH]c2ccccc12)Cc1ccc2ccccc2c1 (single isomer, unassigned)
b = NCCCNC(=O)[C@H](CNCc1c[nH]c2ccccc12)NCc1ccc2ccccc2c1
c = N=C(N)NCCCNCc1ccc2ccccc2c1
# descending pKi order for the listed compounds Your task in answering is to list the labels in the requested order.
a, c, b
(a: 4.72, c: 4.51, b: 4.25)

###

target: Melanocortin receptor 4 (Homo sapiens); assay: Tested for its binding affinity towards human recombinant Melanocortin 4 receptor by using radioligand binding assay
Sequence (P32245 whole entry): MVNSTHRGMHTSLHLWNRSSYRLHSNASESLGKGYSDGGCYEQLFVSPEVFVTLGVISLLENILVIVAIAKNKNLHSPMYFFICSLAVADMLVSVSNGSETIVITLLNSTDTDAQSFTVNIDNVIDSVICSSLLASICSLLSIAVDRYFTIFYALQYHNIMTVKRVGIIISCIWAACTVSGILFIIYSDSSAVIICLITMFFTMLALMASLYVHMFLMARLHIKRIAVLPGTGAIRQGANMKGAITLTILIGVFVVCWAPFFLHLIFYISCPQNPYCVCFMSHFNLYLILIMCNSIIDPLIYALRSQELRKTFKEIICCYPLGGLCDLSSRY
ENDPOINT_LABEL: Ki (µM)

Would you please look over these solved cases?
COMPOUND: N=C(N)N1CCN(Cc2ccc3ccccc3c2)CC1
SUBJECT_OF_TEST: Melanocortin receptor 4 (Homo sapiens)
ENDPOINT_LABEL: Ki
RECORDED_VALUE: 68
//
COMPOUND: NCCCNC(=O)[C@H](CNCc1c[nH]c2ccccc12)NCc1ccc2ccccc2c1
SUBJECT_OF_TEST: Melanocortin receptor 4 (Homo sapiens)
ENDPOINT_LABEL: Ki
RECORDED_VALUE: 27
//
COMPOUND: NC(N)=NCCC[C@H](N)C(=O)N(Cc1cccc2ccccc12)Cc1c[nH]c2ccccc12
SUBJECT_OF_TEST: Melanocortin receptor 4 (Homo sapiens)
ENDPOINT_LABEL: Ki
RECORDED_VALUE: 70
//
COMPOUND: c1ccc2c(CCNCc3c[nH]c4ccccc34)c[nH]c2c1
SUBJECT_OF_TEST: Melanocortin receptor 4 (Homo sapiens)
ENDPOINT_LABEL: Ki
RECORDED_VALUE: 161
//
COMPOUND: N=C(N)NCCCNCc1c[nH]c2ccccc12
SUBJECT_OF_TEST: Melanocortin receptor 4 (Homo sapiens)
ENDPOINT_LABEL: Ki
RECORDED_VALUE: 107

P = N=C(N)NCCCNCc1ccc2ccccc2c1
Q = NCCCCNC(=O)[C@H](CCCCNCc1c[nH]c2ccccc12)NCc1ccc2ccccc2c1
R = NC(N)=NCCC[C@H](N)C(=O)N(Cc1ccc2ccccc2c1)Cc1cccc2ccccc12 (stereo in doubt; 11b)
S = c1ccc2c(CNCc3c[nH]c4ccccc34)cccc2c1
# rank by Ki, ascending (min first) Your task in answering is to list the labels in the requested order.
R, Q, P, S
(R: 5.4 µM, Q: 24 µM, P: 56 µM, S: 161 µM)
